Target: T1, interleukin-2 beta receptor (SYMANSIS, #4122H) to which a human immunoglobulin Fc region was linked (UniProt P14784 27-239, limits assumed)
T1 construct: Bought receptor-Fc, captured on anti-human immunoglobulin antibody; also called IL-2Rβ; CD122; not shown: human immunoglobulin Fc region
T1 sequence (looked up): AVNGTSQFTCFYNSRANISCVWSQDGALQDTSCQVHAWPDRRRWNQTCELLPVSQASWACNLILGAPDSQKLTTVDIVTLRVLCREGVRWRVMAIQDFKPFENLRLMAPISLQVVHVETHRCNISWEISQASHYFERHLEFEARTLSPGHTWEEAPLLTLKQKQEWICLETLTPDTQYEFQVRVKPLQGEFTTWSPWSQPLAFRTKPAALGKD
Experiment: SPR (Biacore T200); receptor-Fc captured on anti-human Ig CM5 chip, analog flowed; relative to analog 1 = 100%
Procedure: In order to measure the binding affinities of the interleukin-2 analogs obtained in Example 4 for each of interleukin-2 alpha and beta receptors, surface plasmon resonance (SPR, BIACORE T200, GE Healthcare) was used. The binding affinities of the prepared analogs for the alpha and beta receptors were measured, and the binding affinity of each of the prepared analogs was compared with that of interleukin-2 analog 1 (aldesleukin). […]
ENDPOINT: Relative binding affinity (%)

I = interleukin-2 analog 95 (ligand) PTSSSTKKTQLQLEHLLLDLQMILNGINNYKNPKLTRMLTFKFYMPKKATELKHLQCLEEELKPLEEGLNLAQSKNFHFEPRDVVSNINVFVLELKGSETTFMCEYADETATIVEFLNRWITFSQSIISTLT
II = interleukin-2 analog 92 (ligand) PTSSSTKKTQLQLEHLLLDLQMILNGINNYKNPKLTRMLTFKFYMPKKATELKHLQCLEEELKPLEEVLNLAQSKNFHFEPRDVVSNINTFVLELKGSETTFMCEYADETATIVEFLNRWITFSQSIISTLT
Input: Form field 'greater Relative binding affinity (%)' accepts I or II ; which applies? Write down the label of the entry you select.
Output: II
